Each recorded value in this set is attributed to PubChem BioAssay AID1159580.

Test: chemical genetic growth profiling, strain panel (AID 1159580);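 also: tested at 20 µM; growth read once vehicle control cultures reached saturation at 30 °C; 1 = growth at the plate median or of vehicle wells; lower values mean less growth of the strain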
Conditions: S. cerevisiae deletion strains, growth OD, locus YMR231W, strain pep5, hits give low values
About 2,000 (36%) of roughly 5,500 compounds were called active. Another 18% or so got no clear call; they are omitted. The list shows a part of the results.
// classify: if (normalized growth < 0.07) Condition met else Condition not met

COMPOUND: Oc1c(Cl)cc(Cl)c2cccnc12
LABEL: Condition not met
--
COMPOUND: CN(C)CCOc1ccc(/C(=C(/CCCl)c2ccccc2)c2ccccc2)cc1
LABEL: Condition met
--
COMPOUND: COC(=O)C[C@H]1C(C)(C)C(=O)[C@@H]2CC3=C4CC(=O)O[C@@H](c5ccoc5)[C@]4(C)CCC3[C@@]1(C)C2=O (stereo not given in full)
LABEL: Condition not met
--
COMPOUND: CCN(CC)CCOc1ccc2c(c1)C(=O)c1cc(OCCN(CC)CC)ccc1-2
LABEL: Condition not met

* * *

Assay: chemical genetic growth profiling, strain panel (AID 1159580);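 also: tested at 20 µM; growth read once vehicle control cultures reached saturation at 30 °C; 1 = growth at the plate median or of vehicle wells; lower values mean less growth of the strain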
Details: S. cerevisiae deletion strains, growth OD, locus YMR205C, strain PFK2
The whole screen tested about 5,500 compounds, of which about 2,000 (36%) were called active. Roughly 18% stayed inconclusive and do not appear here. Cut-off read from the data, not from the text of the source: active = normalized growth mostly below about 0.91 (no sharp cut-off); inconclusive = no clear call, values can overlap the other calls; inactive = mostly above about 0.92. Some of the results follow.
Outcomes: active, inactive

COMPOUND: NCCCC[C@H](N[C@@H](CCc1ccccc1)C(=O)O)C(=O)N1CCC[C@H]1C(=O)O
LABEL: inactive

COMPOUND: CC(=O)NCCCS(=O)(=O)O
LABEL: inactive

COMPOUND: Nc1ccc(S(=O)(=O)Nc2ccccn2)cc1
LABEL: inactive

COMPOUND: Cc1c(O)c(O)cc2c1CC=C1[C@@]2(C)CC[C@@]2(C)C3C[C@](C)(C(=O)O)CC[C@]3(C)CC[C@]12C (stereo partly drawn)
LABEL: active

COMPOUND: C1CNCCN1
LABEL: inactive

COMPOUND: CCCCC1=NC2(CCCC2)C(=O)N1Cc1ccc(-c2ccccc2-c2nn[nH]n2)cc1
LABEL: inactive

COMPOUND: Oc1c(I)cc(Cl)c2cccnc12
LABEL: active

COMPOUND: N[C@@H](Cc1ccc(O)c(O)c1)C(=O)O
LABEL: inactive

COMPOUND: Oc1c(Br)cc(Br)c2cccnc12
LABEL: active

COMPOUND: CC1(C)C(=O)C=C[C@@]2(C)C1=C(O)C(=O)[C@]1(C)C2CC[C@@]2(C)[C@H](c3ccoc3)C[C@H]3O[C@]321 (stereo partly drawn)
LABEL: active

COMPOUND: OC[C@@H](O)[C@@H](O[C@@H]1O[C@H](CO)[C@@H](O)[C@H](O)[C@H]1O)[C@H](O)[C@@H](O)CO
LABEL: inactive

COMPOUND: O=C1O[C@H](C(O)CO)C(O)=C1O (stereo partly drawn)
LABEL: inactive

COMPOUND: CC(C)(C)NCC(O)c1ccccc1Cl (stereo not drawn)
LABEL: inactive

COMPOUND: CCOP(=S)(OCC)SCn1c(=O)oc2cc(Cl)ccc21
LABEL: inactive

COMPOUND: Cc1c(Nc2ncccc2C(=O)O)cccc1C(F)(F)F
LABEL: inactive

COMPOUND: NC(=NCCC[C@H](N)C(=O)O)NC(CCC(=O)O)C(=O)O (stereo partly drawn)
LABEL: inactive

COMPOUND: C=C(CC)C(=O)c1ccc(OCC(=O)O)c(Cl)c1Cl
LABEL: inactive

COMPOUND: CC(=O)NCCCCCC(=O)O
LABEL: inactive

COMPOUND: O=C(O[C@@H]1Cc2c(O)cc(O)cc2O[C@@H]1c1cc(O)c(O)c(O)c1-c1c([C@H]2Oc3cc(O)cc(O)c3C[C@H]2O)cc(O)c(O)c1O)c1cc(O)c(O)c(O)c1
LABEL: inactive

COMPOUND: Nc1ncnc2c1ncn2C1C[C@H](O)[C@@H](CO)O1 (stereo partly drawn)
LABEL: inactive

COMPOUND: O=C(O)c1ccccc1Nc1cccc(C(F)(F)F)c1
LABEL: active

COMPOUND: COC(C)(C)CCC[C@H](C)C/C=C/C(C)=C/C(=O)OC(C)C
LABEL: inactive

COMPOUND: CCCC1O[C@@H]2CC3C4CCC5=CC(=O)C=CC5(C)C4[C@@H](O)CC3(C)[C@]2(C(=O)CO)O1 (stereo partly drawn)
LABEL: inactive

* * *

Assay: chemical genetic growth profiling, strain panel (AID 1159580);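 also: tested at 20 µM; growth read once vehicle control cultures reached saturation at 30 °C; 1 = growth at the plate median or of vehicle wells; lower values mean less growth of the strain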
Conditions: S. cerevisiae deletion strains, growth OD, locus YMR263W, strain SAP30, hits give low values
Out of some 5,500 compounds screened, about 2,000 (36%) were called active. Another 18% or so got no clear call; they are omitted. Some of the results follow.
Reported normalized growth values follow for various molecules

MOLECULE: COc1ccc(NS(=O)(=O)c2c(C)noc2C)cc1
normalized growth: 0.993
//
MOLECULE: CSc1ccc(/C=C/[N+](=O)[O-])cc1
normalized growth: 0.0556
//
MOLECULE: COC(=O)c1ccc(-c2ccc(Cl)cc2)s1
normalized growth: 0.893
//
MOLECULE: CC1(C)C(O)CC(O)C2(C)C1CC(=O)C1(C)C2CCC2(C)C(C(=O)O)OC(=O)C3OC321 (stereo unspecified)
normalized growth: 1.01
//
MOLECULE: OC[C@@H](O)[C@@H](O[C@@H]1O[C@H](CO)[C@@H](O)[C@H](O)[C@H]1O)[C@H](O)[C@@H](O)CO
normalized growth: 1.02
//
MOLECULE: COc1cc(C(O)CN)ccc1O (stereo unspecified)
normalized growth: 1.01

* * *

Reported normalized growth values follow for various molecules
Experiment: chemical genetic growth profiling, strain panel (AID 1159580);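 also: tested at 20 µM; growth read once vehicle control cultures reached saturation at 30 °C; 1 = growth at the plate median or of vehicle wells; lower values mean less growth of the strain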
Settings: S. cerevisiae deletion strains, growth OD, locus YDL040C, strain nat1, hits give low values
About 2,000 (36%) of roughly 5,500 compounds were called active. Not shown: some 18% with an inconclusive outcome. This is one part of the list.

MOLECULE: C[C@H]1[C@H]2CCC3C4CC=C5C[C@@H](N(C)C)CC[C@]5(C)C4CC[C@@]32CN1C (stereo not given in full)
normalized growth: 0.974 (inactive)
//
MOLECULE: O=C1C=CC2=C3c4cc(O)c(O)cc4C[C@@]3(O)COC2=C1
normalized growth: 0.97 (inactive)
//
MOLECULE: C[n+]1cccc(C(=O)[O-])c1
normalized growth: 0.981 (inactive)
//
MOLECULE: O=[N+]([O-])c1cc([As](=O)(O)O)ccc1O
normalized growth: 0.958 (inactive)
//
MOLECULE: CC(=O)NCCCS(=O)(=O)O
normalized growth: 1.02 (inactive)
//
MOLECULE: C1CCN2CC3CC(CN4CCCCC34)C2C1 (stereo not given)
normalized growth: 1.01 (inactive)
//
MOLECULE: CC(C)(C)NC[C@@H](O)COc1nsnc1N1CCOCC1
normalized growth: 1.01 (inactive)
//
MOLECULE: CCOC(=O)c1oc2c(OC)c(O)cc(O)c2c(=O)c1-c1cc(OC)c(OC)c(OC)c1
normalized growth: 0.983 (inactive)
//
MOLECULE: O=[N+]([O-])c1ccc(O)c([N+](=O)[O-])c1
normalized growth: 0.848 (active)
//
MOLECULE: O=C(O)CCCCC1CCSS1 (stereo not given)
normalized growth: 0.976 (inactive)
//
MOLECULE: CC(=O)Nc1ccc(S(=O)(=O)c2ccc(NC(C)=O)cc2)cc1
normalized growth: 1.02 (inactive)
//
MOLECULE: CCOP(=S)(OCC)SCn1c(=O)oc2cc(Cl)ccc21
normalized growth: 0.961 (inactive)
//
MOLECULE: C[C@H](N)[C@H](O)c1ccc(O)c(O)c1
normalized growth: 1 (inactive)
//
MOLECULE: CCCCC1=NC2(CCCC2)C(=O)N1Cc1ccc(-c2ccccc2-c2nn[nH]n2)cc1
normalized growth: 1.02 (inactive)
//
MOLECULE: COc1cccc(/C=C/C(=O)O)c1C(C)C
normalized growth: 0.988 (inactive)
//
MOLECULE: CS(=O)(=O)CCCCN=C=S
normalized growth: 0.896 (active)
//
MOLECULE: Cc1c(Nc2ncccc2C(=O)O)cccc1C(F)(F)F
normalized growth: 0.981 (inactive)
//
MOLECULE: N[C@@H](Cc1ccc(O)c(O)c1)C(=O)O
normalized growth: 0.998 (inactive)
//
MOLECULE: COC(C)(C)CCC[C@H](C)C/C=C/C(C)=C/C(=O)OC(C)C
normalized growth: 1 (inactive)
//
MOLECULE: O=C1CCCC2C3CC(CN12)[C@@H]1CCCCN1C3 (stereo not given in full)
normalized growth: 0.991 (inactive)
//
MOLECULE: O=[N+]([O-])c1cc(O)c(O)c([N+](=O)[O-])c1
normalized growth: 1.02 (inactive)
//
MOLECULE: CCCC1O[C@@H]2CC3C4CCC5=CC(=O)C=CC5(C)C4[C@@H](O)CC3(C)[C@]2(C(=O)CO)O1 (stereo not given in full)
normalized growth: 1.01 (inactive)
//
MOLECULE: Nc1ccc([As](=O)(O)O)cc1
normalized growth: 1.01 (inactive)
//
MOLECULE: CC(C)NCC(O)c1ccc2ccccc2c1 (stereo not given)
normalized growth: 0.987 (inactive)
//
MOLECULE: O=C1C=CC2=C3c4cc(O)c(O)cc4CC3(O)COC2=C1O (stereo not given)
normalized growth: 1.04 (inactive)
